The reported measurements were obtained from patent US9656962B2.

biological target: μ-opioid receptor (Homo sapiens (Human)); test: μ-opioid receptor [35S]GTPγS functional assay, U-2 OS cells (Table 5); type: biochemical; conditions: μ GTP
MEASUREMENT_TYPE: pEC50
Answers are plain numbers, as −log10 of the molar value.

// below: answered compounds
COMPOUND	pEC50
O=C([C@@H]1C[C@]23CCN(CC4CC4)[C@H](Cc4ccc(O)cc42)[C@]3(O)C1)N1CCCCC1 [Compound 56]	7.98
O=C(O)[C@@H]1C[C@]23CCN(CC4CC4)[C@H](Cc4ccc(O)cc42)[C@]3(O)C1 [Compound 16]	8.32
O=C(NCc1ccc(O)cc1)[C@@H]1C[C@]23CCN(CC4CC4)[C@H](Cc4ccc(O)cc42)[C@]3(O)C1 [Compound 39]	7.95
NC(=O)[C@@H]1C[C@]23CCN(CC4CC4)[C@H](Cc4ccc(O)cc42)[C@]3(O)C1 [Compound 31]	8.63
O=C(NCc1ccc(Cl)cc1)[C@@H]1C[C@]23CCN(CC4CC4)[C@H](Cc4ccc(O)cc42)[C@]3(O)C1 [Compound 43]	8.34
O=C([C@@H]1C[C@]23CCN(CC4CC4)[C@H](Cc4ccc(O)cc42)[C@]3(O)C1)N1CCOCC1 [Compound 58]	7.84
COc1ccc2c(c1)[C@]13CCN(CC4CC4)[C@H](C2)[C@]1(O)C[C@@H](C#N)C3 [Compound 26]	5.95
CC(C)CNC(=O)[C@H]1C[C@]23CCN(CC4CC4)[C@H](Cc4ccc(O)cc42)[C@]3(O)C1 [Compound 36]	8.71
COc1ccc2c(c1)[C@]13CCN(CC4CC4)[C@H](C2)[C@]1(O)C[C@H](C(=O)O)C3 [Compound 14]	6.90
CCN(CC)C(=O)[C@@H]1C[C@]23CCN(CC4CC4)[C@H](Cc4ccc(O)cc42)[C@]3(O)C1 [Compound 59]	7.65

Provide pEC50 for all items below, preserving their order.
1. CN1CC[C@]23C[C@@H](C(N)=O)C[C@@]2(O)[C@H]1Cc1ccc(O)cc13 [Compound 77]
2. O=C(NCCc1ccccc1)[C@@H]1C[C@]23CCN(CC4CC4)[C@H](Cc4ccc(O)cc42)[C@]3(O)C1 [Compound 50]
3. NC(=O)[C@H]1C[C@]23CCN(CC4CC4)[C@H](Cc4ccc(O)cc42)[C@]3(O)C1 [Compound 30]
4. CN(CC(=O)O)C(=O)[C@@H]1C[C@]23CCN(CC4CC4)[C@H](Cc4ccc(O)cc42)[C@]3(O)C1 [Compound 66]

### Response
[6.41, 8.16, 8.79, 7.54]

### Prompt Entry N=C(N)NCCCCNC(=O)[C@@H]1C[C@]23CCN(CC4CC4)[C@H](Cc4ccc(O)cc42)[C@]3(O)C1 [Compound 7] : reported pEC50 = ?
### Response 8.05
